The measured values listed here are drawn from paper PMC9482650.

Target: SCRIB_1, Q14160
Sequence (Q14160 718-814): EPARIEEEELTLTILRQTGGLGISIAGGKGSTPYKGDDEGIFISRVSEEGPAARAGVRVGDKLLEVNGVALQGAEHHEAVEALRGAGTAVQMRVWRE
Assay: holdup assay
Set-up: key: below the threshold = too weak to quantify, mostly under pKd 3.1 to 4
Settings: plain residues with an end cap or a label only (N-terminal biotin on a linker: ado-ado)
PROPERTY LABEL: pKd

PSVYSRSQYV [CLDN8, P56748]	below the threshold
AHGSTRDQSI [KCNB1, Q14721]	below the threshold
VKQYADVEGF [HNRNPK, P61978;P61978-2]	below the threshold
QRYPGNQTTC [CCL24, O00175]	3.92
KPDKQEEFYA [SDC3, O75056]	below the threshold
NTALVESEDL [PALLS, Q8WX93;Q8WX93-1]	below the threshold
EPAKETTTNV [SLC2A3, P11169]	below the threshold
MLPANYVEAI [NEB, P20929]	below the threshold

Now take the following binder into account.
Could you tell me which pKd is on file for GVHSNDHSVV [LPAR1, Q92633] ? below the threshold
